System: PANC-1
Assay Protocol: Inhibition of cells growth by colorimetric (SRB) assay, PANC-1
Measurement Parameters: Homo sapiens, PANC-1, 48 h, read-out: LC50 PANC-1, SRB assay, 48 hours exposure
Mark each entry t if its CC50 sits below 30 µM, and f for all others.

Molecule | Class Assignment
CSc1nccc2c(-c3cccs3)c3cccnc3n12 [Compound 60] | f
COc1nccc(-c2c3cccnc3n3c(N)nccc23)n1.Cl [Compound 81] | f
COc1nccc(-c2c3c(O)ccnc3n3c(N)nccc23)n1 [Compound 105] | f
Nc1nccc(-c2c3c(Cl)ccnc3n3c(N)nccc23)n1 [Compound 113] | f
CSc1nccc(-c2c3cccnc3n3ccccc23)n1 [Compound 55] | f
Cl.Nc1nccc(-c2c3cccnc3n3c(N)nccc23)n1 [Compound 51] | t
Nc1nccc2c(-c3cccs3)c3cccnc3n12 [Compound 65] | f
CSc1nccc(-c2c3cccnc3n3c(N(C(C)=O)C(C)=O)nccc23)n1 [Compound 26] | t
Cl.Nc1nccc2c(-c3ccncn3)c3cccnc3n12 [Compound 71] | f
COc1ccnc2c1c(-c1ccnc(N)n1)c1ccnc(N)n12 [Compound 114] | f
Nc1nccc(-c2c3cc(Cl)cnc3n3c(N)nccc23)n1 [Compound 49] | f
